- Experimental details: isobaric coefficient of expansion
- Measurement parameters: 328.15 K; 20000 kPa; Liquid; DSC
Parameter: isobaric coefficient of expansion

The value of isobaric coefficient of expansion measured for the molecule O=[N+]([O-])c1ccccc1 turned out to be 0.000787 1/K

The value of isobaric coefficient of expansion measured for the molecule C[N+](=O)[O-] turned out to be 0.00117 1/K

The value of isobaric coefficient of expansion measured for the molecule CCC#N turned out to be 0.00122 1/K

The value of isobaric coefficient of expansion measured for the molecule CCC[N+](=O)[O-] turned out to be 0.00104 1/K

The value of isobaric coefficient of expansion measured for the molecule CC[N+](=O)[O-] turned out to be 0.0011 1/K

The value of isobaric coefficient of expansion measured for the molecule N#Cc1ccccc1 turned out to be 0.000808 1/K

* * *

Consider the following compounds; for each one, report its isobaric coefficient of expansion.
- Experimental details: isobaric coefficient of expansion
- Measurement parameters: 278.15 K; 45000 kPa; Liquid; DSC

The value of isobaric coefficient of expansion measured for the compound CCC#N turned out to be 0.00102 1/K

The value of isobaric coefficient of expansion measured for the compound CC[N+](=O)[O-] turned out to be 0.000973 1/K

The value of isobaric coefficient of expansion measured for the compound C[N+](=O)[O-] turned out to be 0.00102 1/K

The value of isobaric coefficient of expansion measured for the compound CCC[N+](=O)[O-] turned out to be 0.000902 1/K

The value of isobaric coefficient of expansion measured for the compound N#Cc1ccccc1 turned out to be 0.00076 1/K

* * *

Consider the following molecules; for each one, report its isobaric coefficient of expansion.
- Experimental details: isobaric coefficient of expansion
- Measurement parameters: 328.15 K; 45000 kPa; Liquid; DSC

The value of isobaric coefficient of expansion measured for the molecule CCC[N+](=O)[O-] turned out to be 0.000912 1/K

The value of isobaric coefficient of expansion measured for the molecule C[N+](=O)[O-] turned out to be 0.00105 1/K

The value of isobaric coefficient of expansion measured for the molecule O=[N+]([O-])c1ccccc1 turned out to be 0.000726 1/K

The value of isobaric coefficient of expansion measured for the molecule N#Cc1ccccc1 turned out to be 0.000751 1/K

The value of isobaric coefficient of expansion measured for the molecule CCC#N turned out to be 0.00105 1/K

The value of isobaric coefficient of expansion measured for the molecule CC[N+](=O)[O-] turned out to be 0.000984 1/K

* * *

- Experimental details: isobaric coefficient of expansion
- Measurement parameters: 328.15 K; 25000 kPa; Liquid; DSC
Parameter: isobaric coefficient of expansion

The value of isobaric coefficient of expansion measured for the compound CCC#N [propanenitrile] turned out to be 0.00118 1/K

The value of isobaric coefficient of expansion measured for the compound CCC[N+](=O)[O-] [1-nitropropane] turned out to be 0.00101 1/K

The value of isobaric coefficient of expansion measured for the compound O=[N+]([O-])c1ccccc1 [nitrobenzene] turned out to be 0.000774 1/K

The value of isobaric coefficient of expansion measured for the compound CC[N+](=O)[O-] [nitroethane] turned out to be 0.00107 1/K

The value of isobaric coefficient of expansion measured for the compound C[N+](=O)[O-] [nitromethane] turned out to be 0.00114 1/K

The value of isobaric coefficient of expansion measured for the compound N#Cc1ccccc1 [benzonitrile] turned out to be 0.000794 1/K

* * *

Consider the following molecules; for each one, report its isobaric coefficient of expansion.
- Experimental details: isobaric coefficient of expansion
- Measurement parameters: 318.15 K; 20000 kPa; Liquid; DSC

The value of isobaric coefficient of expansion measured for the molecule CCC#N turned out to be 0.0012 1/K

The value of isobaric coefficient of expansion measured for the molecule CC[N+](=O)[O-] turned out to be 0.0011 1/K

The value of isobaric coefficient of expansion measured for the molecule N#Cc1ccccc1 turned out to be 0.000811 1/K

The value of isobaric coefficient of expansion measured for the molecule C[N+](=O)[O-] turned out to be 0.00116 1/K

The value of isobaric coefficient of expansion measured for the molecule O=[N+]([O-])c1ccccc1 turned out to be 0.000792 1/K

The value of isobaric coefficient of expansion measured for the molecule CCC[N+](=O)[O-] turned out to be 0.00103 1/K

* * *

- Experimental details: isobaric coefficient of expansion
- Measurement parameters: 318.15 K; 45000 kPa; Liquid; DSC
Consider the following molecules; for each one, report its isobaric coefficient of expansion.

The value of isobaric coefficient of expansion measured for the molecule N#Cc1ccccc1 turned out to be 0.000754 1/K

The value of isobaric coefficient of expansion measured for the molecule CCC[N+](=O)[O-] turned out to be 0.00091 1/K

The value of isobaric coefficient of expansion measured for the molecule CCC#N turned out to be 0.00104 1/K

The value of isobaric coefficient of expansion measured for the molecule O=[N+]([O-])c1ccccc1 turned out to be 0.000729 1/K

The value of isobaric coefficient of expansion measured for the molecule C[N+](=O)[O-] turned out to be 0.00104 1/K

The value of isobaric coefficient of expansion measured for the molecule CC[N+](=O)[O-] turned out to be 0.000981 1/K

* * *

- Experimental details: isobaric coefficient of expansion
- Measurement parameters: 308.15 K; 10000 kPa; Liquid; DSC
Parameter: isobaric coefficient of expansion

The value of isobaric coefficient of expansion measured for the molecule CC[N+](=O)[O-] turned out to be 0.00114 1/K

The value of isobaric coefficient of expansion measured for the molecule N#Cc1ccccc1 turned out to be 0.000842 1/K

The value of isobaric coefficient of expansion measured for the molecule C[N+](=O)[O-] turned out to be 0.0012 1/K

The value of isobaric coefficient of expansion measured for the molecule CCC[N+](=O)[O-] turned out to be 0.00106 1/K

The value of isobaric coefficient of expansion measured for the molecule O=[N+]([O-])c1ccccc1 turned out to be 0.000812 1/K

The value of isobaric coefficient of expansion measured for the molecule CCC#N turned out to be 0.00126 1/K

* * *

Consider the following molecules; for each one, report its isobaric coefficient of expansion.
- Experimental details: isobaric coefficient of expansion
- Measurement parameters: 288.15 K; 40000 kPa; Liquid; DSC

The value of isobaric coefficient of expansion measured for the molecule CCC[N+](=O)[O-] turned out to be 0.000916 1/K

The value of isobaric coefficient of expansion measured for the molecule CCC#N turned out to be 0.00105 1/K

The value of isobaric coefficient of expansion measured for the molecule O=[N+]([O-])c1ccccc1 turned out to be 0.00074 1/K

The value of isobaric coefficient of expansion measured for the molecule N#Cc1ccccc1 turned out to be 0.000771 1/K

The value of isobaric coefficient of expansion measured for the molecule C[N+](=O)[O-] turned out to be 0.00104 1/K

The value of isobaric coefficient of expansion measured for the molecule CC[N+](=O)[O-] turned out to be 0.000987 1/K

* * *

- Experimental details: isobaric coefficient of expansion
- Measurement parameters: 348.15 K; 10000 kPa; Liquid; DSC
Parameter: isobaric coefficient of expansion

The value of isobaric coefficient of expansion measured for the molecule O=[N+]([O-])c1ccccc1 turned out to be 0.000827 1/K

The value of isobaric coefficient of expansion measured for the molecule CC[N+](=O)[O-] turned out to be 0.00121 1/K

The value of isobaric coefficient of expansion measured for the molecule N#Cc1ccccc1 turned out to be 0.00085 1/K

The value of isobaric coefficient of expansion measured for the molecule CCC#N turned out to be 0.00141 1/K

The value of isobaric coefficient of expansion measured for the molecule CCC[N+](=O)[O-] turned out to be 0.00117 1/K

The value of isobaric coefficient of expansion measured for the molecule C[N+](=O)[O-] turned out to be 0.00132 1/K

* * *

- Experimental details: isobaric coefficient of expansion
- Measurement parameters: 328.15 K; 35000 kPa; Liquid; DSC
Consider the following compounds; for each one, report its isobaric coefficient of expansion.

The value of isobaric coefficient of expansion measured for the compound O=[N+]([O-])c1ccccc1 turned out to be 0.00075 1/K

The value of isobaric coefficient of expansion measured for the compound CC[N+](=O)[O-] turned out to be 0.00103 1/K

The value of isobaric coefficient of expansion measured for the compound C[N+](=O)[O-] turned out to be 0.0011 1/K

The value of isobaric coefficient of expansion measured for the compound CCC[N+](=O)[O-] turned out to be 0.000957 1/K

The value of isobaric coefficient of expansion measured for the compound N#Cc1ccccc1 turned out to be 0.000772 1/K

The value of isobaric coefficient of expansion measured for the compound CCC#N turned out to be 0.00111 1/K

These data points were gathered from the NIST ThermoML archive (doi:10.1021/je900672g).
